Molecular target: Equilibrative nucleoside transporter 1 (Homo sapiens)
Test: Binding affinity to human ENT1 in panc1 cells by flow cytometry
Assay type: cell-based
MEASUREMENT_NAME: Kd (nM)
Answer format: numeric, nM implied, no suffix.

Need Kd, item O=C(CCCCCNC(=O)c1ccc2c(c1)C(=O)OC21c2ccc(O)cc2Oc2cc(O)ccc21)NCCSC[C@H]1O[C@@H](n2cnc3c(NCc4ccc([N+](=O)[O-])cc4)ncnc32)[C@H](O)[C@@H]1O
3.8

====

Overview of recorded pKi for various compounds
Biological target: Equilibrative nucleoside transporter 1 (Homo sapiens, UniProt Q99808)
Sequence (Q99808 whole entry): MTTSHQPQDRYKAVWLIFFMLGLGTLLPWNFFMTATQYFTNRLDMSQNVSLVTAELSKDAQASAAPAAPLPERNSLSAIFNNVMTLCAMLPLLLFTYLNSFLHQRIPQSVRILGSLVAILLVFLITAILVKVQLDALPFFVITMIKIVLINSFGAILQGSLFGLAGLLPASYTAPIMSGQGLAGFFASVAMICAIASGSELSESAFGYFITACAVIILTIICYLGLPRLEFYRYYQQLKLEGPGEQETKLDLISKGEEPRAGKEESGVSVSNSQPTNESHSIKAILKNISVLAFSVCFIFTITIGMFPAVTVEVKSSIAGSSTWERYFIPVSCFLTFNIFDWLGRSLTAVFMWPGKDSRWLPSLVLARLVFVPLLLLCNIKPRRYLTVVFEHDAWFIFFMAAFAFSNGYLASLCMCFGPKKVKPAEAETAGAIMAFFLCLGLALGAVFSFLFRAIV
Assay: Displacement of SAENTA-fluorescein from human ENT1 in HL60 cells by flow cytometry
Type: cell-based, HL-60
Schema: pKi number; meaning minus log10 of the concentration expressed in molar units.

>>> reported_result("O=C(CCCCCNC(=O)c1cccc(I)c1)NCCSC[C@H]1O[C@@H](n2cnc3c(NCc4ccc([N+](=O)[O-])cc4)ncnc32)[C@H](O)[C@@H]1O")
10.74

Need pKi, item O=C(CCCCCNC(=O)c1ccc(F)cc1)NCCSC[C@H]1O[C@@H](n2cnc3c(NCc4ccc([N+](=O)[O-])cc4)ncnc32)[C@H](O)[C@@H]1O
10.19

====

Target: Equilibrative nucleoside transporter 1 (Homo sapiens)
Assay: Binding affinity to human ENT1 in HL60 cells by flow cytometry
Assay type: cell-based, HL-60
MEASUREMENT_NAME: Kd (nM)
Answer format: numeric, nM implied, no suffix.

Need Kd, item O=C(CCCCCNC(=O)c1ccc2c(c1)C(=O)OC21c2ccc(O)cc2Oc2cc(O)ccc21)NCCSC[C@H]1O[C@@H](n2cnc3c(NCc4ccc([N+](=O)[O-])cc4)ncnc32)[C@H](O)[C@@H]1O
0.26

====

Molecular target: UniProt Q99808
Assay: Binding affinity to human ENT1 in MIA-PaCa2 cells by flow cytometry
Type: cell-based
MEASUREMENT_NAME: Kd

Need Kd, item O=C(CCCCCNC(=O)c1ccc2c(c1)C(=O)OC21c2ccc(O)cc2Oc2cc(O)ccc21)NCCSC[C@H]1O[C@@H](n2cnc3c(NCc4ccc([N+](=O)[O-])cc4)ncnc32)[C@H](O)[C@@H]1O
0.91 nM

====

Molecular target: Equilibrative nucleoside transporter 1 (Homo sapiens, UniProt Q99808)
Experiment: Binding affinity to human ENT1 in SK-PC1 cells by flow cytometry
Assay type: cell-based
MEASUREMENT_NAME: Kd (pM)
Answer format: numeric, pM implied, no suffix.

Need Kd, item O=C(CCCCCNC(=O)c1ccc2c(c1)C(=O)OC21c2ccc(O)cc2Oc2cc(O)ccc21)NCCSC[C@H]1O[C@@H](n2cnc3c(NCc4ccc([N+](=O)[O-])cc4)ncnc32)[C@H](O)[C@@H]1O
400

Provenance of the data: ChEMBL document CHEMBL1155315
